Recorded folding enthalpy by entry
experiment_notes: folding enthalpy; higher = less favourable; fluorescence melt of hairpins on a sequencing array, two-state fit
condition_label: sodium 0.088 M
The reply should be a number in kcal/mol, with the unit left off.

The examples below pair each entry with its known result.
Give the reported folding enthalpy for this sequence. GCACAGGGAAACCTATGC (((.(((....))).)))
-24.2

Give the reported folding enthalpy for this sequence. GCAAAAGAAATTTTGC ((((((....))))))
-25.9

Give the reported folding enthalpy for this sequence. GCGATACGAAAGTACGC (((.(((....))))))
-29.6

Give the reported folding enthalpy for this sequence. GGGGTTGGAAACAGCTCC ((.(.((....)).).))
-24.6

Give the reported folding enthalpy for this sequence. GATCGGGCTACCGATC ((((((....))))))
-36.7

More entries:
Give the reported folding enthalpy for this sequence. GGCCCAGCGAAAGCTGCC (((..(((....))))))
-8.49

Give the reported folding enthalpy for this sequence. GGTCACGAAAGTGCGACC ((((((....)))..)))
-17.7

Give the reported folding enthalpy for this sequence. GATCCCGAAAGGGGAATC ((((((....)))..)))
-12.3

Give the reported folding enthalpy for this sequence. GCCACGCGAAAGCAAGGC (((..((....))..)))
-22.9

Give the reported folding enthalpy for this sequence. GCACAAGCGAAAGCTTGC (((..(((....))))))
-7.33

Give the reported folding enthalpy for this sequence. GCCGTCGGAAACGACAGC ((.((((....)))).))
-16.6

Give the reported folding enthalpy for this sequence. GATCTGAATTCAGATC ((((((....))))))
-41.6

====

experiment_notes: folding enthalpy; higher = less favourable; fluorescence melt of hairpins on a sequencing array, two-state fit
condition_label: sodium 0.088 M
Quick rule for you: folding enthalpy at -30 kcal/mol or higher means YES, lower means NO.

See these solved cases before continuing.
Determine whether this sequence has folding enthalpy no lower than -30 kcal/mol: GGCGCTGCGAAAGCAGCC (((..(((....))))))
YES

Determine whether this sequence has folding enthalpy no lower than -30 kcal/mol: GACCTTGGAAACGAGGTC (((((.(....).)))))
NO

Determine whether this sequence has folding enthalpy no lower than -30 kcal/mol: GCCTACGAAAGTACGGGC ((((((....)))..)))
YES

Determine whether this sequence has folding enthalpy no lower than -30 kcal/mol: GATCATACTAATGATC ((((((....))))))
NO

Determine whether this sequence has folding enthalpy no lower than -30 kcal/mol: GGATCAGGAAACTGGTTC (.(.(((....))).).)
YES

Determine whether this sequence has folding enthalpy no lower than -30 kcal/mol: GATCTCCTGGAGATC ((((((...))))))
NO

More entries:
Determine whether this sequence has folding enthalpy no lower than -30 kcal/mol: GCTACTCGAAAGAGAAGC (((.(((....))).)))
YES

Determine whether this sequence has folding enthalpy no lower than -30 kcal/mol: GGTCTCGAAAGAGTACC ((((((....))).)))
YES

Determine whether this sequence has folding enthalpy no lower than -30 kcal/mol: GACTGTGGAAACGTAGTC ((((..(....)..))))
YES

Determine whether this sequence has folding enthalpy no lower than -30 kcal/mol: GAGGTACGAAAGTATCTC (((.(((....))).)))
NO

Determine whether this sequence has folding enthalpy no lower than -30 kcal/mol: GTTATCCCGAAAGGGAAC (((..(((....))))))
YES

Determine whether this sequence has folding enthalpy no lower than -30 kcal/mol: GGGAGACGAAAGTCCCCC (((.(((....))).)))
YES

====

experiment_notes: melting temperature; fluorescence melt of hairpins on a sequencing array, two-state fit, raised by 9.35 °C to match UV melts
condition_label: sodium 0.088 M
Recorded Tm by entry
The reply should be a number in °C, with the unit left off.

The examples below pair each entry with its known result.
Give the reported Tm for this sequence. GATCGGATTACCGATC ((((((....))))))
58.2

Give the reported Tm for this sequence. GGGCTTCGAAAGAAACCC (((.(((....))).)))
49.6

Give the reported Tm for this sequence. GATCTGTCCTCAGATC ((((((....))))))
51

Give the reported Tm for this sequence. GATCACCTCAGTGATC ((((((....))))))
59.6

Give the reported Tm for this sequence. GGTACTGGAAACAGTACC (((((((....)))))))
61.5

Give the reported Tm for this sequence. GAGAGCGGAAACGCCCTC (((.(((....))).)))
47.2

Give the reported Tm for this sequence. GCGCTGGGAAACCGGTGC ((.(.((....)).).))
51.5

Give the reported Tm for this sequence. GATCAGTGGTCTGATC ((((((....))))))
51.6

Give the reported Tm for this sequence. TGTTTGAAAAAACA (((((....)))))
29.3

Give the reported Tm for this sequence. GATCTCTACTGAGATC ((((((....))))))
53.2

More entries:
Give the reported Tm for this sequence. GGGCAGGCGAAAGCCCCC (((..(((....))))))
46

Give the reported Tm for this sequence. GAATGCGAAAGCAACTTC ((((((....)))..)))
36

Give the reported Tm for this sequence. GATGCCGGAAACGGCACC (.(((((....))))).)
44.5

Give the reported Tm for this sequence. GCGCGAGGAAACTCACGC (((.(((....))).)))
53.8

Give the reported Tm for this sequence. GGCTTACGAAAGTAGCC (((.(((....))))))
55.5

====

experiment_notes: melting temperature; fluorescence melt of hairpins on a sequencing array, two-state fit, raised by 9.35 °C to match UV melts
condition_label: sodium 0.088 M
quantity_measured: Tm (°C)
The reply should be a number in °C, with the unit left off.

Give the reported Tm for this sequence. GATCAATTTTTTGATC ((((((....))))))
47.3

Give the reported Tm for this sequence. GTATACGAAAGTAAATAC ((((((....)))..)))
27.7

Give the reported Tm for this sequence. GGTTCCGAAAGGAAAACC ((((((....)))..)))
43.6

Give the reported Tm for this sequence. GACCACGCGAAAGCGGTC (((..(((....))))))
47.3

Give the reported Tm for this sequence. CCTGTGAAAACAGG (((((....)))))
51.6

More entries:
Give the reported Tm for this sequence. GACGGAACGAAAGTTGTC (((..(((....))))))
30.7

Give the reported Tm for this sequence. GAGCGCGAAAGCGACCTC ((((((....)))..)))
46.6

Give the reported Tm for this sequence. GACTGACGAAAGTCGGTC (((.(((....))).)))
62

Give the reported Tm for this sequence. CGCTCGGAAACGAGGGCG ((((((....)))..)))
51.7

Give the reported Tm for this sequence. GATCTACTACTAGATC ((((((....))))))
37.5

Give the reported Tm for this sequence. GGAAAACCGAAAGGTTCC (((..(((....))))))
35.8

Give the reported Tm for this sequence. GTACGGAAACGTAC (((((....)))))
53.7

====

Recorded Tm by entry
experiment_notes: melting temperature; fluorescence melt of hairpins on a sequencing array, two-state fit, raised by 9.35 °C to match UV melts
condition_label: sodium 0.088 M
The reply should be a number in °C, with the unit left off.

The examples below pair each entry with its known result.
Give the reported Tm for this sequence. GCCATGCCGAAAGGCGGC (((..(((....))))))
59.2

Give the reported Tm for this sequence. GGATAAGGAAACTTATCC (((((((....)))))))
52.8

Give the reported Tm for this sequence. GATCCAGAGCTGGATC ((((((....))))))
50.4

Give the reported Tm for this sequence. GTGTTACCGAAAGGTCAC (((..(((....))))))
43.6

Give the reported Tm for this sequence. GTCTGGGGAAACCTAGAC ((((.((....)).))))
47.6

Give the reported Tm for this sequence. GCGACATGTCGC ((((....))))
63.8

More entries:
Give the reported Tm for this sequence. GCATCCGAAAGGAGATGC ((((((....)))..)))
50.1

Give the reported Tm for this sequence. GATACGGGAAACCGCATC (((.(((....))).)))
41.4

Give the reported Tm for this sequence. GCGCAACGAAAGTTTCGC (((.(((....))).)))
52.9

====

experiment_notes: melting temperature; fluorescence melt of hairpins on a sequencing array, two-state fit, raised by 9.35 °C to match UV melts
condition_label: sodium 0.088 M
Please assign a class to every record based on measured Tm, with ranges label 0: < 40 °C; label 1: ≥ 40 °C and < 50 °C; label 2: ≥ 50 °C

See these solved cases before continuing.
Returns: class label. Input: GTAGGTGGAAACACCCAC ((.((((....)))).))
label 0

Returns: class label. Input: GCGAAGCGAAAGCTGTGC ((..(((....)))..))
label 1

Returns: class label. Input: GTCCTCGAAAGAGAGAC ((((((....))).)))
label 1

Returns: class label. Input: GTTGTCGAAAGACAAAAC ((((((....)))..)))
label 0

Returns: class label. Input: TATTCGAAAGAATA (((((....)))))
label 0

Returns: class label. Input: GCTTCCCGAAAGGGCAGC (((.(((....))).)))
label 2

Returns: class label. Input: GTCCTCCCGAAAGGGGAC (((..(((....))))))
label 1

Returns: class label. Input: GCTCGCGAAAGCGTCAGC ((((((....)))..)))
label 1

Returns: class label. Input: GATCATCGGAATGATC ((((((....))))))
label 1

Returns: class label. Input: GTAGACGGAAACGTCCAC ((.((((....)))).))
label 0

Now consider a different sequence.
Returns: class label. Input: GATCTCTCTCGAGATC ((((((....))))))
label 2
